- MEASURED_ON: ENL YEATS domain (AviSUMO-ENL YEATS) (Homo sapiens, UniProt Q03111)
- Construct: encoding ENL YEATS (aa 1−148) was cloned in pET28a-; made in house; host or cells: E. coli BL21(DE3pLysS), co-expressed with BirA (pBirAcm)
- Sequence (Q03111 1-148): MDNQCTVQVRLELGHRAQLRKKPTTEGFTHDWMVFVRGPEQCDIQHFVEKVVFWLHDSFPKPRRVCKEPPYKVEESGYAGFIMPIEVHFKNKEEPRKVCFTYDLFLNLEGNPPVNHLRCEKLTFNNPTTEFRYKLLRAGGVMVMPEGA
- MEASUREMENT_PROTOCOL: Phage panning of BuK-containing 7-mer library against AviSUMO-ENL YEATS with Illumina NGS abundance
- DETAILS: sheet ENLR3: round 3 of panning against ENL YEATS; TAG = amber codon (BuK); 7-mer library positions V1-V7
Give measured n (number of NGS reads of the unique amino acid sequence) for each item. Keep answers brief.
The reply should be a number, written without any unit.

Exercise: Requested field: n (number of NGS reads of the unique amino acid sequence). Item: HDVYCYTAG
Solution: 13

Exercise: And the next one, QCVPRTAGD ?
Solution: 5

Exercise: Would you kindly repeat that for HYVLFYG ?
Solution: 1

Exercise: How about this substance: HIKCTAGII
Solution: 1

Exercise: Then this substance: QCGSRTAGD
Solution: 3

Exercise: Likewise for YDVYCNTAG ?
Solution: 3

Exercise: Next entry: LTAGSSASG
Solution: 1

Exercise: Then what about the substance IRCHPWTAG ?
Solution: 1

Exercise: Queued: SVIYCYTAG
Solution: 9

Exercise: How about this substance: DDVYCYTAG
Solution: 7

Exercise: Now the substance CFFTAGIMC
Solution: 1

Exercise: Would you kindly repeat that for HCVLFTAGG ?
Solution: 1

Exercise: Subsequent entry: YDVYYYTAG
Solution: 7

Exercise: Cool, now SCVVFTAGI
Solution: 2

Exercise: Could you do the same for LTCYCYTAG , please?
Solution: 39

Exercise: Entry YDVYWYTAG please
Solution: 3

Exercise: # repeat for QCCPRTAGD
Solution: 10

Exercise: One more substance: SWYITFTAG
Solution: 79

Exercise: Likewise for LFIALPTAG ?
Solution: 1

Exercise: Same again, this time with WWIIKTAGG
Solution: 9

Exercise: Now give it for WWTIETAGG too.
Solution: 2
